For each of the compounds below, state its Dmax.
Molecular target: IRAK4 (Homo sapiens)
Construct: endogenous in cells; host or cells: Karpas299
Sequence (Q9NWZ3 1-460): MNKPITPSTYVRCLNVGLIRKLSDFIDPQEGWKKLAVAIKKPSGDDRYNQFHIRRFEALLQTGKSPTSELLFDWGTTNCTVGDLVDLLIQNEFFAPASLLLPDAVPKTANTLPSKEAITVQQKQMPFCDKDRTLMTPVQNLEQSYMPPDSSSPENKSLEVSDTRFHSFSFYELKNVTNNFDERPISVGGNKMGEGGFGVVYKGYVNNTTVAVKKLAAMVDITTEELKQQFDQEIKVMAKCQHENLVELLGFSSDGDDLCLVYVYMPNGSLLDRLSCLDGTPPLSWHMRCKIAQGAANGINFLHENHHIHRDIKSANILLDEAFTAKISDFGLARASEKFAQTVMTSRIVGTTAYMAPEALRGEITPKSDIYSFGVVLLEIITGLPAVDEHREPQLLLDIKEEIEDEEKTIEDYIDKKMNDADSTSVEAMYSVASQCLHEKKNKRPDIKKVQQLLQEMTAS
Experiment: IRAK4 Degradation Assay (Karpas299, HTRF/TR-FRET)
Assay type: cell-based
Settings: Karpas-299 cells, 5 h treatment; maximum percentage of degradation; read-out: IRAK4 in Karpas-299 (5 h) Dmax (%)

Example results:
CC(C)(O)c1cc2nn(C34CC(N5CCN(CC6CN(c7cc(F)c([C@H]8CCC(=O)NC8=O)c(F)c7)C6)CC5)(C3)C4)cc2cc1NC(=O)c1ccc2cc(C#N)cnn12; 97%
COC[C@@H]1CN(CC2CN(c3cc(F)c([C@H]4CCC(=O)NC4=O)c(F)c3)C2)CCN1[C@H]1CC[C@H](n2cc3cc(NC(=O)c4ccc5cc(C#N)cnn45)c(C(C)(C)O)cc3n2)CC1; 97%

Each compound below has a reported value. Please supply its Dmax.
1. CC(C)(O)c1cc2nn([C@H]3CC[C@H](N4CCN(C5CN(c6cc(F)c([C@H]7CCC(=O)NC7=O)c(F)c6)C5)CC4)CC3)cc2cc1NC(=O)c1ccc2cc(C#N)cnn12
2. CC(C)(O)c1cc2nn(C3CCN(C4CCN(C(=O)[C@@H]5CCN(c6cc(F)c([C@H]7CCC(=O)NC7=O)c(F)c6)C5)CC4)CC3)cc2cc1NC(=O)c1cccc(C(F)(F)F)n1
3. O=C1CC[C@H](c2c(F)cc(N3CC[C@@H](C(=O)N4CCN([C@H]5CC[C@H](n6cc7cc(NC(=O)c8cccc(C(F)(F)F)n8)c(C(=O)N[C@H]8C[C@H](CO)C8)cc7n6)CC5)CC4)C3)cc2F)C(=O)N1

94%
91%
87%
